Values compiled from patent US12583818B2.

biological target: Pin1 (Homo sapiens); construct: purchased Anaspec; test: Evaluation of Pin1 enzyme inhibitory activity (Sensolyte Green Pin1 assay kit); assay type: biochemical; settings: concentration at which the Pin1 enzyme activity is inhibited; 2 hours at room temperature, fluorescence 490 nm/520 nm; read-out: Pin 1 inhibition
pIC50: −log10 of the molar value.
Quantity kind: pIC50

Consider the reported pIC50 for these molecules:
Molecule	pIC50
CN(C)CCCOc1ccc(S(=O)(=O)NCCc2cc3ccccc3[nH]2)cc1 [Example 38]	< 4.00
CN1CCN(CCCOc2ccc(S(=O)(=O)NCCCc3c[nH]c4ccc(-c5ccccc5)cc34)cc2)CC1 [Example 156]	5.00 to 6.00
O=S(=O)(NCCCc1c[nH]c2ccc(Cl)cc12)c1ccc(OCCCn2cncn2)cc1 [Example 160]	> 6.00
CCCCOc1ccc(S(=O)(=O)NCCCN2CCOCC2)cc1 [Example 6]	< 4.00
CCCCOc1ccc(S(=O)(=O)NCCc2ccc(C(=O)O)cc2)cc1 [Example 8]	< 4.00
O=S(=O)(NCCCc1c[nH]c2ccccc12)c1ccc(OCCCN2CCC(O)CC2)cc1 [Example 69]	5.00 to 6.00
O=S(=O)(NCCCc1c[nH]c2ccc(Cl)cc12)c1ccc(OCCCN2CCC(F)(F)CC2)cc1 [Example 82]	5.00 to 6.00
CCCCOc1ccc(S(=O)(=O)NCCCn2cnc3ccccc32)cc1 [Example 33]	< 4.00
CS(=O)(=O)CCCOc1ccc(S(=O)(=O)NCCCc2c[nH]c3ccc(Cl)cc23)cc1 [Example 145]	> 6.00
O=S(=O)(NCCCc1c[nH]c2ccc(Cl)cc12)c1ccc(OCCCN2CCC(Cl)CC2)cc1 [Example 78]	5.00 to 6.00

Entry CCN1CCN(CCCOc2ccc(S(=O)(=O)NCCCc3c[nH]c4ccc(F)cc34)cc2)CC1 [Example 63] has what pIC50?
5.00 to 6.00

Entry C[C@@H]1CN(CCCOc2ccc(S(=O)(=O)NCCCc3c[nH]c4ccc(F)cc34)cc2)C[C@H](C)N1 [Example 72] has what pIC50?
4.00 to 5.00

Entry COc1ccc2[nH]cc(CCNS(=O)(=O)c3ccc(OCCCN4CCN(C)CC4)cc3)c2c1 [Example 49] has what pIC50?
4.00 to 5.00

Entry CN1CCN(CCCOc2ccc(S(=O)(=O)NCCCc3c[nH]c4ccc(Cl)cc34)c3ccccc23)CC1 [Example 86] has what pIC50?
> 6.00

Entry CN1CCN(CCCOc2ccc(S(=O)(=O)NC3CCCC(c4c[nH]c5ccccc45)C3)cc2)CC1 (centres unmarked) [Example 85] has what pIC50?
4.00 to 5.00

Entry O=C1CN(CCCOc2ccc(S(=O)(=O)NCCCc3c[nH]c4ccc(Cl)cc34)cc2)CCN1 [Example 163] has what pIC50?
5.00 to 6.00

Entry O=S(=O)(NCCCc1c[nH]c2ccc(Cl)cc12)c1ccc(OCC2(CN3CCNCC3)CC2)cc1 [Example 117] has what pIC50?
> 6.00

====

molecular target: Pin1 (Homo sapiens, UniProt Q13526); construct: purchased Anaspec; experiment: Evaluation of Pin1 enzyme inhibitory activity (Sensolyte Green Pin1 assay kit); format: biochemical; settings: concentration at which the Pin1 enzyme activity is inhibited; 2 hours at room temperature, fluorescence 490 nm/520 nm; read-out: Pin 1 inhibition
Sequence (Q13526 whole entry): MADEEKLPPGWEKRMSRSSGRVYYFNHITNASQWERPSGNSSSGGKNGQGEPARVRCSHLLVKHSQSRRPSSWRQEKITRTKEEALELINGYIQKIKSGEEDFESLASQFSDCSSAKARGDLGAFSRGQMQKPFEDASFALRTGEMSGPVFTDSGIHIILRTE
pIC50: −log10 of the molar value.
Quantity kind: pIC50

Entry CN1CCN(CCCOc2ccc(S(=O)(=O)NCCCn3ccc4ccccc43)cc2)CC1 has what pIC50?
< 4.00
